- assay: basal CRE-LacZ reporter activity in PC12 – cell-based, unstimulated, primary screen (AID 1145)
- conditions: no forskolin, luminescence, 4.5 h, higher = more signal, called active from +8 up or from −8 down
attribute.measured: z-score
Hey, just send me the number, nothing else.

Completed entries (count: 3):
compound	measured.result
CC(C)(C)OC(=O)CC[C@]1(C(=O)N2CCCCC2)N=C(c2ccc(OCCCO)cc2)O[C@H]1c1ccccc1CN=[N+]=[N-]	0.927
COCCOC(=O)N1C(=O)[C@@]2(c3cc(C#Cc4ccc(OC)cc4)ccc31)[C@H](c1ccc(OCCO)cc1)N1[C@H](c3ccccc3)[C@H](c3ccccc3)OC(=O)[C@H]1[C@@H]2C(N)=O	-1.15
C=CC[C@]1(C(=O)NCC(O)CO)N=C(c2ccc(OCCCO)cc2)O[C@H]1c1ccccc1N=[N+]=[N-] (stereo partly drawn)	1.24

Problem: Report z-score for "CCCCC=C[C@@H](NC(=O)CCc1ccccc1)c1ccccc1" please.
Result: -0.951

Problem: Given "C=CCN1C(=O)[C@@]2(O[C@@H](CCO)[C@H]([Si](C)(C)c3ccc(OC)cc3)[C@H]2C)c2cc(NC(=O)[C@H](C)O)ccc21" , state its recorded z-score.
Result: 17.4

Problem: Which z-score reading was recorded for the compound "C=C[C@H](C)[C@H](OC(=O)Nc1ccc(SC)cc1)c1ccc(O)c2ccccc12" ?
Result: 0.0172

Problem: Any idea what its z-score is? The compound is "O=C(N1CCOCC1)[C@@]1(CCS(=O)(=O)c2ccccc2)COC(c2ccc(OCCCO)cc2)=N1"
Result: 0.148

Problem: # input compound: "O=C(Nc1cc(Br)ccc1C(=O)NCc1cccc(O)c1)c1ccccc1" ; wanted: its z-score
Result: -0.374

====

- assay: probe aXIP binding to arrayed compounds – biochemical, NeuroSMM set, 635/667 nm fluorescence, primary screen (AID 1119);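 note: probe is the protein aXip251-270 applied at 1 µg/mL to compound-printed slides; binding of probe to printed compounds measured as 667 nm fluorescence plus signal to noise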
- conditions: small-molecule microarray, higher = more signal, called active from +8 up or from −8 down
attribute.measured: composite Z-score
Form: value (number only, do not type unit).

Below are worked cases with known answers.
molecule	composite Z-score
C[C@H]1NC(=O)C([C@@H](C)OCc2ccccc2)NC(=O)[C@@]23C(=O)N[C@@H](Cc4ccccc4)C2[C@H](C)[C@@]2(C)O[C@H]2C3/C=C/CC/C=C/CNC1=O (some centres not stated)	-0.169
CN1C(=O)C2C=CC(C(O)c3cccc4ccccc34)N(NC(=O)OC(C)(C)C)C2C1=O (configuration not stated)	0.58
O=C1N(Cc2ccccc2)c2ccccc2[C@H]2OC(c3ccc(OCCCO)cc3)=N[C@@]12CCS(=O)(=O)c1ccccc1	-0.313

Problem: Requested read-out: composite Z-score. Entry: "C=CCN1C(=O)[C@@]2(O[C@@H](CCn3cc([C@H](O)c4ccccc4)nn3)[C@H]([Si](C)(C)c3ccc(OC)cc3)[C@H]2C)c2cc(NC(=O)c3ccc(OC)cc3)ccc21"
Result: -0.0277

Problem: Entry under review: "COc1ccc(C#Cc2ccc3c(c2)[C@]2(C(=O)N3)[C@H](c3ccc(OCCO)cc3)N3[C@H](c4ccccc4)[C@H](c4ccccc4)OC(=O)[C@H]3[C@@H]2C(=O)N2CCN(c3ncccn3)CC2)cc1" . Reported composite Z-score?
Result: -0.912

Problem: // returns reported composite Z-score for input CC[C@@H]1[C@@H]2C3C(=O)N(CC)C(=O)C3CC(=O)[C@@H]2[C@H](c2ccc(C)cc2)N1S(=O)(=O)c1ccc(C)cc1 (some centres not stated)
Result: -0.304

Problem: Which composite Z-score is listed for "CCCC=C(CCC)[C@@H](NS(=O)(=O)c1cccc2cccnc12)c1ccc(C(=O)OC)cc1" ?
Result: 0.242
